- MEASURED_TARGET: P-selectin (Homo sapiens) (UniProt P16109)
- Sequence (P16109 whole entry): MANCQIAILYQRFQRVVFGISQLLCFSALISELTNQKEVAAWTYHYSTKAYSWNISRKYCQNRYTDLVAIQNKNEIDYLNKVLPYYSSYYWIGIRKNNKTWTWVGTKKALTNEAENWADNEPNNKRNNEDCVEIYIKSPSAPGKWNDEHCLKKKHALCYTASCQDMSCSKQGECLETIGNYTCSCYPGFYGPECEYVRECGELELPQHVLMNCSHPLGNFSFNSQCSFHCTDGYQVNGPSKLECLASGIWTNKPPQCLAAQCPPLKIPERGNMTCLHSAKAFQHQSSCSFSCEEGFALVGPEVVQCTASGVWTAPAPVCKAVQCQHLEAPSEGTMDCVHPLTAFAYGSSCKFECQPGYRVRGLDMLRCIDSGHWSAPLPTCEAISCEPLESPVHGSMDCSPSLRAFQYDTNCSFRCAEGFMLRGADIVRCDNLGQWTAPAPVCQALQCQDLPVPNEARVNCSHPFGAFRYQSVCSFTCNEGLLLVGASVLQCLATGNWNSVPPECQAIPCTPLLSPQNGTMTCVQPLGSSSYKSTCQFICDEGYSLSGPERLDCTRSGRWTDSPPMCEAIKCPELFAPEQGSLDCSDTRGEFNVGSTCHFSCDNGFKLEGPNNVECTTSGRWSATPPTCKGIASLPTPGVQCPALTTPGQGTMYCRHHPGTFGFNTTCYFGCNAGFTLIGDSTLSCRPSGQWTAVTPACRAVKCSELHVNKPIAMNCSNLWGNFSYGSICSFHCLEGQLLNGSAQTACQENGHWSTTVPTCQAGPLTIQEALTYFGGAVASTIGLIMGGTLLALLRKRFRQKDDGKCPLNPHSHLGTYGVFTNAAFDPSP
- ASSAY_DETAILS: Inhibition of P-Selectin by Biacore assay at 500 uM
OBSERVATION_TYPE: inhibition (%)
API: value field is a number in %; no unit string.

Request: Note inhibition for the molecule shown: `O=C(O)c1c(O)c(Cc2c[nH]c3ccccc23)nc2c(C(F)(F)F)cccc12`
Response: 15

Request: Note inhibition for the molecule shown: `O=C(O)c1c(O)c(Cc2c[nH]c3ccccc23)nc2c(OC(F)(F)F)cccc12`
Response: 18

Request: Note inhibition for the molecule shown: `O=C(O)c1c(O)c(Cc2ccc(Cl)c(Cl)c2)nc2c3c(ccc12)CCCC3`
Response: 36

Request: Note inhibition for the molecule shown: `O=C(O)c1c(O)c(Cc2ccc(Cl)cc2)nc2ccc(-c3ccccc3)cc12`
Response: 38

Request: Note inhibition for the molecule shown: `Cc1ccc2c(C(=O)O)c(O)c(Cc3ccc(Cl)cc3)nc2c1`
Response: 12

Request: Note inhibition for the molecule shown: `Cc1cccc2c(C(=O)O)c(O)c(Cc3c[nH]c4ccccc34)nc12`
Response: 11

Request: Note inhibition for the molecule shown: `Cc1c(Cc2nc3c4c(ccc3c(C(=O)O)c2O)CCCC4)sc2ccccc12`
Response: 22

Request: Note inhibition for the molecule shown: `CCc1ccc2c(C(=O)O)c(O)c(Cc3ccc(Cl)cc3)nc2c1`
Response: 19

Request: Note inhibition for the molecule shown: `O=C(O)c1c(O)c(Cc2ccc(Cl)cc2)nc2c(C(=O)O)cccc12`
Response: 8

Request: Note inhibition for the molecule shown: `O=C(O)c1c(O)c(Cc2ccc(Cl)cc2)nc2c(F)cccc12`
Response: 12

Request: Note inhibition for the molecule shown: `CCc1cccc2c(C(=O)O)c(O)c(Cc3c[nH]c4ccccc34)nc12`
Response: 19

Request: Note inhibition for the molecule shown: `O=C(O)c1c(O)c(Cc2c[nH]c3ccccc23)nc2c(Br)cccc12`
Response: 15

Request: Note inhibition for the molecule shown: `O=C(O)c1ccc(Cc2nc3c4c(ccc3c(C(=O)O)c2O)CCCC4)cc1`
Response: 10

Request: Note inhibition for the molecule shown: `CC(=O)n1cc(Cc2nc3c4c(ccc3c(C(=O)O)c2O)CCCC4)c2ccccc21`
Response: 34

Request: Note inhibition for the molecule shown: `CC(C)(C)c1cccc2c(C(=O)O)c(O)c(Cc3ccc(Cl)cc3)nc12`
Response: 12

---

// values below are IC50; system is P-selectin (Homo sapiens)
Sequence (P16109 whole entry): as above
API: value field is a number in µM; no unit string.

Request: Note IC50 for the compound shown: `O=C(O)c1c(O)c(Cc2c[nH]c3ccc(Br)cc23)nc2c3c(ccc12)CCCC3`
Response: 175

Request: Note IC50 for the compound shown: `O=C(O)c1c(O)c(Cc2ccc(Cl)cc2)nc2c(-c3ccsc3)cccc12`
Response: 225

Request: Note IC50 for the compound shown: `O=C(O)c1c(O)c(Cc2c[nH]c3ccccc23)nc2c3c(ccc12)CCCC3`
Response: 225

Request: Note IC50 for the compound shown: `O=C(O)c1c(O)c(CCc2ccccc2)nc2c3c(ccc12)CCCC3`
Response: 450

Request: Note IC50 for the compound shown: `CC(C)c1cccc2c(C(=O)O)c(O)c(Cc3ccc(Cl)cc3)nc12`
Response: 225

Request: Note IC50 for the compound shown: `Cc1ccc2[nH]cc(Cc3nc4c5c(ccc4c(C(=O)O)c3O)CCCC5)c2c1`
Response: 200

Request: Note IC50 for the compound shown: `O=C(O)c1c(O)c(Cc2ccc(Cl)cc2)nc2c3c(ccc12)CCC3`
Response: 580

Request: Note IC50 for the compound shown: `O=C(O)c1c(OCc2ccccc2)c(Cc2ccc(Cl)cc2)nc2c3c(ccc12)CCCC3`
Response: 390

Request: Note IC50 for the compound shown: `NC(=O)c1ccc(Cc2nc3c4c(ccc3c(C(=O)O)c2O)CCCC4)cc1`
Response: 1250

Request: Note IC50 for the compound shown: `O=C(O)c1c(O)c(Cc2ccc(Cl)cc2)nc2cc(Cl)ccc12`
Response: 900

Request: Note IC50 for the compound shown: `CS(=O)(=O)N1CCc2ccc3c(C(=O)O)c(O)c(Cc4ccc(Cl)cc4)nc3c2C1`
Response: 625

Request: Note IC50 for the compound shown: `O=C(O)c1c(O)c(-c2c[nH]c3ccccc23)nc2c3c(ccc12)CCCC3`
Response: 225
